Dear all, I have gathered published IC50 values for Fibroblast growth factor receptor 2 (Homo sapiens, UniProt P21802); the list follows.
Parameter measured: IC50 (nM)

[[record]]
molecule = "Cn1cc(-c2ccc3c(-c4cc(-c5ccc(F)cc5F)cc(NS(=O)(=O)C5CC5)n4)cnn3c2)cn1"
measurement_target = "Fibroblast growth factor receptor 2 (Homo sapiens, UniProt P21802)"
parameter_measured = "IC50"
unit_info = "nM"
bound_operator = "="
measured = 1.06

[[record]]
molecule = "C=CC(=O)N1C[C@@H](CC)[C@H](Nc2ncc3cc(-c4c(Cl)c(OC)cc(OC)c4Cl)ccc3n2)C1"
measurement_target = "Fibroblast growth factor receptor 2 (Homo sapiens, UniProt P21802)"
parameter_measured = "IC50"
unit_info = "nM"
bound_operator = "="
measured = 25

[[record]]
molecule = "C=CC(=O)NCc1cc2c(cn1)CN(c1c(F)c(OC)cc(OC)c1F)C(=O)N2CC(F)F"
measurement_target = "Fibroblast growth factor receptor 2 (Homo sapiens, UniProt P21802)"
parameter_measured = "IC50"
unit_info = "nM"
bound_operator = ">"
measured = 200

[[record]]
molecule = "Cn1cc(-c2ccc3c(-c4cc(NC(=O)NC5CC5)cc(-c5ccc(F)cc5F)c4)cnn3c2)cn1"
measurement_target = "Fibroblast growth factor receptor 2 (Homo sapiens, UniProt P21802)"
parameter_measured = "IC50"
unit_info = "nM"
bound_operator = "="
measured = 1.88

[[record]]
molecule = "COc1cc(OC)c(F)c(-c2ncc3c(-c4ccc5c(c4)CN(C(C)CO)C5=O)n[nH]c3n2)c1F (stereo not shown)"
measurement_target = "Fibroblast growth factor receptor 2 (Homo sapiens, UniProt P21802)"
parameter_measured = "IC50"
unit_info = "nM"
bound_operator = "<"
measured = 100

[[record]]
molecule = "CNc1cc2c(cn1)CN(c1c(F)c(OC)cc(OC)c1F)C(=O)C21CC1"
measurement_target = "Fibroblast growth factor receptor 2 (Homo sapiens, UniProt P21802)"
parameter_measured = "IC50"
unit_info = "nM"
bound_operator = "<"
measured = 100

[[record]]
molecule = "COc1cc(OC)c(Cl)c(-c2cc3[nH]nc(-c4cnn(CC(=O)N5CCOCC5)c4)c3cn2)c1Cl"
measurement_target = "Fibroblast growth factor receptor 2 (Homo sapiens, UniProt P21802)"
parameter_measured = "IC50"
unit_info = "nM"
bound_operator = "<"
measured = 100


----------
Literature IC50 values, system: Fibroblast growth factor receptor 2 (Homo sapiens, UniProt P21802).
Parameter measured: IC50

[[record]]
molecule = "C=CC(=O)N1C[C@@H](Nc2ncc3cc(-c4c(Cl)c(OC)cc(OC)c4Cl)ccc3n2)C[C@H]1CO"
parameter_measured = "IC50"
measured = "4.4 nM"

[[record]]
molecule = "COc1cc(OC)c(F)c(-c2cc3[nH]nc(-c4ccc5c(c4)CC(C(=O)N4CCN(C)CC4)O5)c3cn2)c1F (stereo not drawn)"
parameter_measured = "IC50"
measured = "< 100 nM"

[[record]]
molecule = "COCCNc1cc(NC(=O)N(C)c2cccc(C=O)n2)ncc1C#N"
parameter_measured = "IC50"
measured = "> 10000 nM"

[[record]]
molecule = "COc1cc(NC(=O)N2CCCc3ccc(C=O)nc32)ncc1C#N"
parameter_measured = "IC50"
measured = "> 10000 nM"

[[record]]
molecule = "COc1cc(OC)c(F)c(N2Cc3cnc(N[C@H]4CC[C@H](O)CC4)cc3C3(CC3)C2=O)c1F"
parameter_measured = "IC50"
measured = "< 100 nM"

[[record]]
molecule = "COc1cc(OC)c(F)c(-c2cc3[nH]nc(-c4ccc(N5CCN(C)CC5)cc4)c3cn2)c1F"
parameter_measured = "IC50"
measured = "< 100 nM"

